Listing: GI50 of selected molecules
test system: MDA-N; experiment: NCI tumour cell line growth inhibition, 48 h
Active and inactive are the calls of the source. Rule as the data show it: active = GI50 up to about 1.1 µM and inactive = higher.

{"molecule": "CCOC(=O)C(NC(=O)NCc1ccc(F)cc1)C(F)(F)F (stereo not given)", "GI50": "> 100 µM (inactive)"}
{"molecule": "CC(C)(O)C1CC[C@]2(C)CC[C@]3(C)[C@H](CC[C@@H]4[C@@]5(C)CC[C@H](O)C(C)(C)[C@@H]5CC[C@]43C)[C@@H]12 (stereo not given in full)", "GI50": "47.8 µM (inactive)"}
{"molecule": "CC1=NC(=O)C(C)(c2ccccc2)N1CCc1ccccc1 (stereo not given)", "GI50": "36.3 µM (inactive)"}
{"molecule": "C[C@]12CC/C(=N\\O)C=C1CC[C@@H]1[C@@H]2CC[C@]2(C)C(=N/O)/C(=C/c3ccc([N+](=O)[O-])cc3)C[C@@H]12", "GI50": "4.03 µM (inactive)"}
{"molecule": "Cc1ccc(/C=C2\\NC(=S)N(CN3CCOCC3)C2=O)cc1", "GI50": "> 100 µM (inactive)"}
{"molecule": "COc1cc(NCCC(=O)O)c2ncccc2c1", "GI50": "> 100 µM (inactive)"}
{"molecule": "O=S(=O)(O)c1ccc(O)c(/N=N/c2c(O)ccc3ccccc23)c1", "GI50": "> 100 µM (inactive)"}
{"molecule": "COC(=O)C1(Cc2ccc3c(c2)CCC3)Cc2cc3c(cc2C1=O)CCC3 (stereo not given)", "GI50": "13 µM (inactive)"}
{"molecule": "O=C(NNS(=O)(=O)c1ccccc1)c1cccnc1", "GI50": "> 100 µM (inactive)"}
{"molecule": "O=C1c2ccccc2C(=O)N1CC1(C(=O)O)NCCS1(=O)=O (stereo not given)", "GI50": "> 100 µM (inactive)"}

###

Parameter GI50: see the listing below.
test system: U-251; test: NCI tumour cell line growth inhibition, 48 h
Calls of active or inactive are those of the source. Cut-off read from the data, not from the text of the source: active = GI50 up to about 1.1 µM and inactive = higher.

{"compound": "CN(C)CC1CCCC1=O (stereo not given)", "GI50": "6.82 µM (inactive)"}
{"compound": "Cc1nc2ccc(S(=O)(=O)Nc3nccs3)cc2c(=O)n1NS(=O)(=O)c1nccs1", "GI50": "> 100 µM (inactive)"}
{"compound": "COc1ccc(OC)c2c(Nc3ccc(S(=O)(=O)O)c4cc(S(=O)(=O)O)cc(S(=O)(=O)O)c34)cc(C)nc12", "GI50": "> 100 µM (inactive)"}
{"compound": "CCCCCCCCCCCC[C@@H](O)[C@H]1CC[C@H]([C@H](O)CC[C@H](O)[C@@H]2CC[C@@H](CCCCCCCC3=C[C@H](C)OC3=O)O2)O1", "GI50": "> 50 µM (inactive)"}
{"compound": "CC1=NC(=O)C(C)(c2ccccc2)N1CCc1ccccc1 (stereo not given)", "GI50": "> 100 µM (inactive)"}
{"compound": "Oc1cc2c3c(c1)CCCN3CCC2", "GI50": "> 10 µM (inactive)"}
{"compound": "O=c1[nH]nc(-c2ccccc2)n1O", "GI50": "> 100 µM (inactive)"}
{"compound": "COc1ccc(C(C2C(=O)N(C)C(=O)N(C)C2=O)C(F)(F)C(=O)N(C)C)cc1 (stereo not given)", "GI50": "> 100 µM (inactive)"}
{"compound": "Nc1ncc(/C=N/O)c(NCC2(CO)CC(CCc3ccccc3)C2)n1 (stereo not given)", "GI50": "12 µM (inactive)"}
{"compound": "CN(C)CCCNc1c2ccccc2[n+]([O-])c2ccccc12", "GI50": "62.8 µM (inactive)"}

###

system: SK-OV-3; assay: NCI tumour cell line growth inhibition, 48 h
Activity calls are given as the source filed them. No stated cut-off is given here; in the data, active = GI50 up to about 1.1 µM and inactive = higher. Non-standard residues stand in square brackets, D forms with d. Residues, ends and D or L forms follow the SMILES beside them. *: point of attachment. Cbz = O=C(OCc1ccccc1)*; Boc = CC(C)(C)OC(=O)*; Aib = CC(C)(N)C(=O)O; OBn = c1ccc(CO*)cc1; OtBu = CC(C)(C)O*; βAla = NCCC(=O)O

{"molecule": "CC1=NN(c2cccc(Cl)c2)C2(C1)C(Cl)C(=O)N2c1nc2ccccc2s1 (configuration not stated)", "system.under.test": "SK-OV-3", "GI50": "28 µM (inactive)"}
{"molecule": "CNc1ccc2c(c1)[C@@]1(C)c3ccccc3[C@@H](C2)N1C", "system.under.test": "SK-OV-3", "GI50": "43.8 µM (inactive)"}
{"molecule": "O=c1c2ccccc2nc(-c2ccc(Br)cc2)n1NC1OC(CO)C(O)C(O)C1O (configuration not stated)", "system.under.test": "SK-OV-3", "GI50": "> 100 µM (inactive)"}
{"molecule": "CCN(CC)Cc1ccc(C(=S)Nc2ccc(C)cc2)s1", "system.under.test": "SK-OV-3", "GI50": "15.6 µM (inactive)"}
{"molecule": "S=C(Cc1ccc2c(c1)Sc1ccccc1O2)N1CCOCC1", "system.under.test": "SK-OV-3", "GI50": "49.9 µM (inactive)"}
{"molecule": "CCCCCCCCCCCC[C@@H](O)[C@H]1CC[C@H]([C@H](O)CC[C@H](O)[C@@H]2CC[C@@H](CCCCCCCC3=C[C@H](C)OC3=O)O2)O1", "system.under.test": "SK-OV-3", "GI50": "> 50 µM (inactive)"}
{"molecule": "COc1ccc(OC)c(N2CC(N)C2=O)c1 (configuration not stated)", "system.under.test": "SK-OV-3", "GI50": "> 100 µM (inactive)"}
{"molecule": "C=C1Oc2nc3ccccc3c(=O)n2C1(C)C", "system.under.test": "SK-OV-3", "GI50": "> 100 µM (inactive)"}
{"molecule": "COc1ccc(C2S/C(=C\\c3ccccc3O)C(=O)N2NC(=O)Cc2ccccc2)cc1 (configuration not stated)", "system.under.test": "SK-OV-3", "GI50": "> 100 µM (inactive)"}
{"molecule": "N#CCCCC[N+]12CN3CN(CN(C3)C1)C2", "system.under.test": "SK-OV-3", "GI50": "> 100 µM (inactive)"}
{"molecule": "O=C1N(C2CCCCC2)CC12CCCCC2", "system.under.test": "SK-OV-3", "GI50": "> 100 µM (inactive)"}
{"molecule": "COc1ccc(CSc2nc3ccccc3nc2-c2cccs2)cc1", "system.under.test": "SK-OV-3", "GI50": "> 100 µM (inactive)"}
{"molecule": "CC(C)(C)OC(=O)CC(NC(=O)OC(C)(C)C)C(=O)NC(CCCCNC(=O)OCc1ccccc1)C(=O)NC(C)(C)C(=O)NCCC(=O)OCc1ccccc1 (configuration not stated) (Boc-D(OtBu)K(Cbz)[Aib][βAla]-OBn; configuration not given here)", "system.under.test": "SK-OV-3", "GI50": "> 100 µM (inactive)"}
{"molecule": "CCOC(=O)CC[C@H](NC(=O)c1nc[nH]c1/N=N/N(C)C)C(=O)OCC", "system.under.test": "SK-OV-3", "GI50": "> 100 µM (inactive)"}
{"molecule": "C[C@]12CC/C(=N\\O)C=C1CC[C@@H]1[C@@H]2CC[C@]2(C)C(=N/O)/C(=C/c3ccc([N+](=O)[O-])cc3)C[C@@H]12", "system.under.test": "SK-OV-3", "GI50": "15.5 µM (inactive)"}
{"molecule": "COc1cc2c(cc1O)c(O)cc1c3cc(OC)c(OC)cc3c[n+](C)c21", "system.under.test": "SK-OV-3", "GI50": "> 100 µM (inactive)"}
{"molecule": "O=C(O)CCCc1nc2c(n1-c1ccccc1)C(=O)c1ccccc1C2=O", "system.under.test": "SK-OV-3", "GI50": "> 100 µM (inactive)"}
{"molecule": "COCC#C[C@@]1(O)CCCCC1CC(OC)OC (some centres not stated)", "system.under.test": "SK-OV-3", "GI50": "> 100 µM (inactive)"}
{"molecule": "O=[PH](O)c1ccccn1", "system.under.test": "SK-OV-3", "GI50": "> 100 µM (inactive)"}
{"molecule": "[N-]=[N+]=Nc1cc(=O)n(-c2ccccc2)c(=O)n1-c1ccccc1", "system.under.test": "SK-OV-3", "GI50": "> 100 µM (inactive)"}
{"molecule": "N#Cc1cccnc1Cl", "system.under.test": "SK-OV-3", "GI50": "> 100 µM (inactive)"}
{"molecule": "CC1=NC(=Cc2cccc(Cl)c2)C(=O)N1n1c(-c2ccccc2)nc2ccccc2c1=O", "system.under.test": "SK-OV-3", "GI50": "37.8 µM (inactive)"}
{"molecule": "O=C(N[C@@H]1C=CCC[C@@H]1c1ccccc1)OCc1ccccc1", "system.under.test": "SK-OV-3", "GI50": "30.4 µM (inactive)"}
{"molecule": "CCCCCCCCCCCC(=O)OCC(C[As](=O)(O)O)OC(=O)CCCCCCCCCCC (configuration not stated)", "system.under.test": "SK-OV-3", "GI50": "13.8 µM (inactive)"}
{"molecule": "C#CCN(Cc1ccc2nc(-c3ccccc3)c(Cl)nc2c1)c1cc(OC)c(OC)c(OC)c1", "system.under.test": "SK-OV-3", "GI50": "> 100 µM (inactive)"}
{"molecule": "CCC1=CCN(c2ccc(C)cc2)OC1c1ccc(OC)cc1 (configuration not stated)", "system.under.test": "SK-OV-3", "GI50": "> 100 µM (inactive)"}
{"molecule": "Cc1c(C(=O)/C=C/c2cccc3ccccc23)[n+]([O-])c2ccccc2[n+]1[O-]", "system.under.test": "SK-OV-3", "GI50": "17.3 µM (inactive)"}
{"molecule": "CCCCCCCCCCCCCCCCCC(=O)NCC(COP(=O)([O-])OCC[N+](C)(C)C)OCC (configuration not stated)", "system.under.test": "SK-OV-3", "GI50": "19.4 µM (inactive)"}
{"molecule": "C=C1CC(C)(COc2ccc3c(C)c(C)c(=O)oc3c2C)OC1=O (configuration not stated)", "system.under.test": "SK-OV-3", "GI50": "3.05 µM (inactive)"}
{"molecule": "Cc1ccc(NC(=O)/C(=N\\NC(N)=O)c2c(O)c3ccccc3[nH]c2=O)cc1", "system.under.test": "SK-OV-3", "GI50": "> 100 µM (inactive)"}
{"molecule": "Cc1ccc2nc(NC(=O)C(=O)C(C#N)c3ccc(Cl)cc3)sc2c1 (configuration not stated)", "system.under.test": "SK-OV-3", "GI50": "> 50 µM (inactive)"}
{"molecule": "C/C(=N\\O)c1ccc2cc(Br)c3ccccc3c2c1", "system.under.test": "SK-OV-3", "GI50": "32.3 µM (inactive)"}
{"molecule": "CC(C)(CN1CCCCC1)C(=O)/C=C/c1c(Cl)cccc1Cl", "system.under.test": "SK-OV-3", "GI50": "2.49 µM (inactive)"}
{"molecule": "CN(C)CCCNc1c2ccccc2[n+]([O-])c2ccccc12", "system.under.test": "SK-OV-3", "GI50": "82.6 µM (inactive)"}
{"molecule": "Cc1ccc([N+](=O)[O-])c2c(NCCC[N+](C)(C)[O-])ccnc12", "system.under.test": "SK-OV-3", "GI50": "52 µM (inactive)"}
{"molecule": "COC(=O)c1ccccc1/C=C1\\Cc2ccc3c(c2C1=O)CCCC3", "system.under.test": "SK-OV-3", "GI50": "> 100 µM (inactive)"}
{"molecule": "CN(C)CCNc1ccc2nnn3c4ccccc4c(=O)c1c23", "system.under.test": "SK-OV-3", "GI50": "7.87 µM (inactive)"}
{"molecule": "O=S(=O)(O)c1ccc(O)c(/N=N/c2c(O)ccc3ccccc23)c1", "system.under.test": "SK-OV-3", "GI50": "> 100 µM (inactive)"}
{"molecule": "COc1ccc(C2C3C(=O)C=CC(=O)C3[C@@H]2C)cc1OC (some centres not stated)", "system.under.test": "SK-OV-3", "GI50": "> 100 µM (inactive)"}
{"molecule": "CN(C)CC1CCCC1=O (configuration not stated)", "system.under.test": "SK-OV-3", "GI50": "15.3 µM (inactive)"}
{"molecule": "CCC1CCC2C3CC=C4CC(OC(C)=O)C(N)CC4(C)C3CCC12C (configuration not stated)", "system.under.test": "SK-OV-3", "GI50": "9.53 µM (inactive)"}
{"molecule": "CN(C)C(=O)Oc1ccc(C(=S)Nc2ccccc2)cc1Br", "system.under.test": "SK-OV-3", "GI50": "> 100 µM (inactive)"}
